FYI, the data here is from BindingDB's records for doi:10.1021/jm900075g.

What follows is a record of IC50 for RAC-alpha serine/threonine-protein kinase (Homo sapiens, UniProt P31749).

compound: C[C@H]1O[C@@H]2CC(=O)O[C@@H]2C2=C1C(=O)c1c(O)cccc1C2=O
subject-of-test: RAC-alpha serine/threonine-protein kinase (Homo sapiens, UniProt P31749)
Sequence (P31749 whole entry): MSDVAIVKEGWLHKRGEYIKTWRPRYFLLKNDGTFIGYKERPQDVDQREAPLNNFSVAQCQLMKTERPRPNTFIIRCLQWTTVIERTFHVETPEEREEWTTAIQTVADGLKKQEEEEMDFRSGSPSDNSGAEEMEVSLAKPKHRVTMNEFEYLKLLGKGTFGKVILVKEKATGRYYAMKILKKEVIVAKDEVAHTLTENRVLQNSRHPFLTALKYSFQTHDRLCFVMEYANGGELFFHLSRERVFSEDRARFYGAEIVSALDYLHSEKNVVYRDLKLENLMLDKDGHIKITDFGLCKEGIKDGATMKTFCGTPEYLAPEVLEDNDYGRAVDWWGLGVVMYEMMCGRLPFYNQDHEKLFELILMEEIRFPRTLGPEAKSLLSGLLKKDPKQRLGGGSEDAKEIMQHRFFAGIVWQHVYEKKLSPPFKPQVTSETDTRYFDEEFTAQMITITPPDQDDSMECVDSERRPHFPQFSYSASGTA
value-units: nM
IC50: 313
--
compound: O=C1C[C@@H]2O[C@H](c3ccsc3)C3=C(C(=O)c4ccccc4C3=O)[C@@H]2O1 [Pyranonaphthoquinone (PNQ) lactone, 11e]
subject-of-test: RAC-alpha serine/threonine-protein kinase (Homo sapiens, UniProt P31749)
value-units: nM
IC50: 99
--
compound: O=C1C[C@H]2O[C@@H](c3ccsc3)C3=C(C(=O)c4ccccc4C3=O)[C@H]2O1 [Pyranonaphthoquinone (PNQ) lactone, 11f]
subject-of-test: RAC-alpha serine/threonine-protein kinase (Homo sapiens, UniProt P31749)
value-units: nM
IC50: 122
--
compound: C[C@H]1O[C@@H]2CC(=O)O[C@@H]2C2=C1C(=O)c1c(ccc(C3C[C@@H](N(C)C)[C@H](O)[C@@H](C)O3)c1O)C2=O (some centres undefined)
subject-of-test: RAC-alpha serine/threonine-protein kinase (Homo sapiens, UniProt P31749)
value-units: nM
IC50: 149
